Molecular target: human PD-L1/His fusion protein (human, UniProt Q9NZQ7 19-239)
Sequence (Q9NZQ7 19-239 limits assumed): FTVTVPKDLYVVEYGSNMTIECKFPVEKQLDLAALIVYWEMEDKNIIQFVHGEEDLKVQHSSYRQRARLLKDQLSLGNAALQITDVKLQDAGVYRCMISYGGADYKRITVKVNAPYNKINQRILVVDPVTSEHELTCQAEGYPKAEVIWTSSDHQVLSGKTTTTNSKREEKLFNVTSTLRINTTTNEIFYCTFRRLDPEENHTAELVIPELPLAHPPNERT
Experiment: BLI off-rate; test group 3
READOUT: Off-Rate Ratio to that of EM0005-87c (%)
State the answer as a number, implicitly in %.

For orientation, consider the following solved cases.
BINDER	UNIT_LABEL	Off-Rate Ratio to that of EM0005-87c
HuEM0005-87-18 (antibody, human IgG1, V domains shown) VH: EVQLVQSGAEVKKPGASVKVSCKASGYTFTDYYINWVRQAPGQGLEWIGETIPNTGGTTYNQKFKARVTLTVDKSTSTVYMELSSLRSEDTAVYYCARYQSGSPFAYWGQGTTVTVSS VL: EIVMTQSPATLSVSPGERATLSCKASQNVGTAVAWYQQKPGQAPRLLIYSASNRYTGVPDRFTGSGSGTEFTLTISSLQSEDFAVYYCQQHYSTPYTFGGGTKLEIK	%	75
HuEM0005-87-15 (antibody, human IgG1, V domains shown) VH: EVQLVQSGAEVKKPGASVKVSCKASGYSFTDYYINWVKQAPGQGLEWIGETIPNTGGTTYNQKFKAKATLTRDKSTSTAYMELKSLRSEDTAVYYCARYQSGSPFAYWGQGTTVTVSS VL: EIVMTQSPATLSVSPGERATLSCKASQNVGTAVAWYQQKPGQAPRLLIYSASNRYTGVPARFSGSGSGTEFTLTISSLQSEDFAVYYCQQHYSTPYTFGGGTKLEIK	%	96

Here's the next entry for you.
Challenge: Which Off-Rate Ratio to that of EM0005-87c reading was recorded for the binder HuEM0005-87-14 (antibody, human IgG1, V domains shown) VH: EVQLVQSGAEVKKPGASVKVSCKASGYSFTDYYINWVRQAPGQGLEWIGETIPNTGGTTYNQKFKAKATLTVDKSTSTAYMELSSLRSEDTAVYYCARYQSGSPFAYWGQGTTVTVSS VL: EIVMTQSPATLSVSPGERATLSCKASQNVGTAVAWYQQKPGQAPRLLIYSASNRYTGVPARFSGSGSGTEFTLTISSLQSEDFAVYYCQQHYSTPYTFGGGTKLEIK ?
Response given: 80
